# Target or system: VEGFR-2 (Homo sapiens, UniProt P35968)
# Sequence (P35968 20-1356): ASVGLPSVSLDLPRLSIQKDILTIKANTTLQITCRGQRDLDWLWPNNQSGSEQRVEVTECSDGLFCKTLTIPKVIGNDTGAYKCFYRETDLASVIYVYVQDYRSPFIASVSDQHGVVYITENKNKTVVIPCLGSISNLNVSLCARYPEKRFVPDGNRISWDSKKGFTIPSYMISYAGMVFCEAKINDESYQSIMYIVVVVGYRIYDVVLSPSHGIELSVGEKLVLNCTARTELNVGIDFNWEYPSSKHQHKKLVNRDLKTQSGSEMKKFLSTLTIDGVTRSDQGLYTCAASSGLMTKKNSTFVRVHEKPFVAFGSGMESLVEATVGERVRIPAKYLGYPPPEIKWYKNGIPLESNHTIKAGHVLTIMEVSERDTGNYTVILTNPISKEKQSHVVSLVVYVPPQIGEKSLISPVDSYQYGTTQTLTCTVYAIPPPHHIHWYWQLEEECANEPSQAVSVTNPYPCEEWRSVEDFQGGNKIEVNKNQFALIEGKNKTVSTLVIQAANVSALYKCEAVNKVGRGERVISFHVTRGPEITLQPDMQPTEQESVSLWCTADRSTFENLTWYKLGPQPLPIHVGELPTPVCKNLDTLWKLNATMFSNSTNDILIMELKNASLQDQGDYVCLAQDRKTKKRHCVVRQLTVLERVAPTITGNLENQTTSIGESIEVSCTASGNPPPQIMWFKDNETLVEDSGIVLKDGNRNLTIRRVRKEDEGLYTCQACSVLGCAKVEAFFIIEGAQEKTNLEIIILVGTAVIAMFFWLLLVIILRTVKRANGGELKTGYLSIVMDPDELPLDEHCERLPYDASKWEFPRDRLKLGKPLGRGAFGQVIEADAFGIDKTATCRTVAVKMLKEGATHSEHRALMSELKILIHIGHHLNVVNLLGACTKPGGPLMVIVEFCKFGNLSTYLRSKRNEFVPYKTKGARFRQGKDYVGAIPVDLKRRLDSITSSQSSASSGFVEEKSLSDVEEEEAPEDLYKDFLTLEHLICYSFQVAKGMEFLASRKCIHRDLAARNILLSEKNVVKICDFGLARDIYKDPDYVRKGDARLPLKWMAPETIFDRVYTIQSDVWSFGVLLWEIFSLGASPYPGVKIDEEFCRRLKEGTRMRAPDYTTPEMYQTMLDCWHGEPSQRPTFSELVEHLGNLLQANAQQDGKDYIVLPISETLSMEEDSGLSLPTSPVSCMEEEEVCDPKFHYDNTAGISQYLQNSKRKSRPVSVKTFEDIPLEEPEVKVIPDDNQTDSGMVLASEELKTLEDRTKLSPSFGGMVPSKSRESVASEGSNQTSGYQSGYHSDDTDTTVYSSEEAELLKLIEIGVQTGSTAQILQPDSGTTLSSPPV
pIC50: −log10 of the molar value.

{"Mol": "C/C(=N\\NC(=O)c1ccc(NC(=O)C(F)(F)F)cc1)c1cccc(NC(=O)c2cccnc2)c1", "Target or system": "VEGFR-2 (Homo sapiens, UniProt P35968)", "pIC50": 7.18}
